- Test system: UACC-62 melanoma
- test protocol: NCI-60 one-dose screen, 48 h (100 = growth as untreated, 0 = no growth, -100 = all killed)
- test context: 10 µM unless noted
About 83,000 compounds went through this panel and 20% of them were active in at least one assay; those are over-represented in the sample as a whole. Activity calls are given as the source filed them. How the source made its calls: active means growth percent below 10; inactive means the rest.
property measured: growth

Lookup: Give me measured growth, please, for this molecule: `Cc1ccc2nc3c(cc2c1)CSc1nnc(-c2ccc[nH]c2=S)n1N3`
Found: 87% (inactive)

Lookup: Give me measured growth, please, for this molecule: CC(=O)N1c2ccccc2NC2=C(C(=O)N(Cc3ccccc3)C2(C)C)C1c1ccco1 (centres undefined)
Found: 21.2% (inactive)

Lookup: Give me measured growth, please, for this molecule: `CC(=O)OCCCCCNc1ccccc1`
Found: 106% (inactive)

Lookup: Give me measured growth, please, for this molecule: CC[N+](CC)(CCCC(C)[N+]1(Cc2ccccc2)C(C)=CC=C1C)Cc1ccccc1 (centres undefined)
Found: 73% (inactive)

Lookup: Give me measured growth, please, for this molecule: `CC1(C)NCCC[C@]2(C)[C@H]3CC=C4[C@@H]5C[C@@](C)(CO)CC[C@]5(C)CC[C@@]4(C)[C@]3(C)CC[C@@H]12`
Found: 73.6% (inactive)

* * *

- Test system: PC-3 prostate
- test protocol: NCI-60 one-dose screen, 48 h (100 = growth as untreated, 0 = no growth, -100 = all killed)
- test context: 10 µM unless noted
This is part of a sample that, as a whole, favours compounds with a hit. Of some 83,000 tested, about 20% had one in any assay.
Measured growth values are reported for all entries that follow.
A number alone suffices; assume %.

# compound, growth / %
data = [
    ("COc1ccc(/C=C/C(=O)c2ccc(Nc3ncnc4ccccc34)cc2)cc1OC", 65.4),
    ("COc1cc(C2CC(c3cccc(Nc4ccncc4)c3)=NN2c2ccccc2)cc(OC)c1OC (stereo unspecified)", 30.2),
    ("O=S(=O)(c1ccccc1)N1CCCc2ccccc21", 91.3),
]

Lookup: Give me measured growth, please, for this compound: CC(C)Cc1ccc(C(C)C(=O)NCc2c[nH]c3ccc(Cl)cc23)cc1 (stereo unspecified)
Found: 66.2

Lookup: Give me measured growth, please, for this compound: c1ccc(C2CC(c3cccc(Nc4ccncc4)c3)=NN2c2ccccc2)cc1 (stereo unspecified)
Found: 54.5

Lookup: Give me measured growth, please, for this compound: `O=C1c2cccnc2C(=O)c2nc3cc(N4CCN(C5CC5)CC4)ccc3nc21`
Found: 11.6

Lookup: Give me measured growth, please, for this compound: COc1ccc(C2CC(c3cccc(Nc4ccncc4)c3)=NN2c2cc(Cl)cc(Cl)c2)cc1 (stereo unspecified)
Found: 33.8

Lookup: Give me measured growth, please, for this compound: `CCNC(=O)c1[nH]cc(-c2ccc(OC)cc2)c1-c1cc(OC)c(OC)c(OC)c1`
Found: 28.8

Lookup: Give me measured growth, please, for this compound: `Nc1c(C(=O)Nc2cccc3ccncc23)sc2nc3c(cc12)C(=O)CCC3`
Found: 52.9

Lookup: Give me measured growth, please, for this compound: `NC(=S)N/N=C/c1ccc(OC(=O)COc2cc(Cl)c(Cl)cc2Cl)cn1`
Found: 59.8

Lookup: Give me measured growth, please, for this compound: `NC(=S)N/N=C(/c1ccccc1)c1ccccc1N`
Found: 67.3
